Hey, just so you know, these numbers are from ChEMBL document CHEMBL4020733.

Measured fraction unbound by item
assay: Plasma protein binding in rat; assay type: ADME, cell-free; conditions: read-out: PPB (converted)

[[record]]
compound = "C[C@H](N[C@@H](CCc1ccccc1)C(=O)O)C(=O)N1C[C@@H](NC(=O)C[C@H](N)Cc2cc(F)c(F)cc2F)C[C@H]1C(=O)O"
measure = "fraction unbound"
val = 0.58

[[record]]
compound = "C[C@H](N[C@@H](CCc1ccccc1)C(=O)O)C(=O)N1CCC[C@H]1C(=O)O [ENALAPRILAT ANHYDROUS]"
measure = "fraction unbound"
val = 0.456

[[record]]
compound = "N[C@@H](CC(=O)N1CCn2c(nnc2C(F)(F)F)C1)Cc1cc(F)c(F)cc1F"
measure = "fraction unbound"
val = 0.587

[[record]]
compound = "CC[C@H](N[C@@H](CCc1ccccc1)C(=O)O)C(=O)N1C[C@@H](NC(=O)C[C@H](N)Cc2cc(F)c(F)cc2F)C[C@H]1C(=O)O"
measure = "fraction unbound"
val = 0.403

[[record]]
compound = "CCCC[C@H](N[C@@H](CCc1ccccc1)C(=O)O)C(=O)N1C[C@@H](NC(=O)C[C@H](N)Cc2cc(F)c(F)cc2F)C[C@H]1C(=O)O"
measure = "fraction unbound"
val = 0.583


Req: fraction unbound lookup needed for CCC[C@H](N[C@@H](CCc1ccccc1)C(=O)O)C(=O)N1C[C@@H](NC(=O)C[C@H](N)Cc2cc(F)c(F)cc2F)C[C@H]1C(=O)O , thanks.
Resp: 0.564

----------
molecular target: Dipeptidyl peptidase 4 (Homo sapiens); assay: Inhibition of human plasma DPP4
Sequence (P27487 whole entry): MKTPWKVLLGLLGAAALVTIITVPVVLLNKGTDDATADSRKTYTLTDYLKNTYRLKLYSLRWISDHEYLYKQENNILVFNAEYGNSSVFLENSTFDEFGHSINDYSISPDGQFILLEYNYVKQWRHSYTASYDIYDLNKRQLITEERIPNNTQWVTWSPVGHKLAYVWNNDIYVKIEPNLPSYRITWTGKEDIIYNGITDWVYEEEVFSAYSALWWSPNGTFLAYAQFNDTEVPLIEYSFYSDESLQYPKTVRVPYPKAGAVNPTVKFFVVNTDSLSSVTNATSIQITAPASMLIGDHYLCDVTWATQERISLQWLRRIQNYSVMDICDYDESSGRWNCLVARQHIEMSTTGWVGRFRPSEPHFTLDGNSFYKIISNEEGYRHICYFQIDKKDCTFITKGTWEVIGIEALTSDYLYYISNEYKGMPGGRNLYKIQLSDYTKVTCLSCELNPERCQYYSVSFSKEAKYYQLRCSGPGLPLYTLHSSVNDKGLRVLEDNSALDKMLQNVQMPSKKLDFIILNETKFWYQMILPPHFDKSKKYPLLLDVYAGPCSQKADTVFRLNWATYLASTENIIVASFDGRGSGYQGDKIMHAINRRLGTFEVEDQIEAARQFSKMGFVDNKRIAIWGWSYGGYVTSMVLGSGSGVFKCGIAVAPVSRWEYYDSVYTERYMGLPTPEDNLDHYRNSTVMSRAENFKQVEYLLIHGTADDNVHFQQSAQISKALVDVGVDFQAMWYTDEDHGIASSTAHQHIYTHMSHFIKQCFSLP
Quick reference: pIC50 of the listed items.
// pIC50 here means minus log10 of the molar concentration (mol/L)

[[record]]
smiles_structure = "CCCC[C@H](N[C@@H](CCc1ccccc1)C(=O)O)C(=O)N1C[C@@H](NC(=O)C[C@H](N)Cc2cc(F)c(F)cc2F)C[C@H]1C(=O)O"
measure = "pIC50"
val = 6.99

[[record]]
smiles_structure = "CCC[C@H](N[C@@H](CCc1ccccc1)C(=O)O)C(=O)N1C[C@@H](NC(=O)C[C@H](N)Cc2cc(F)c(F)cc2F)C[C@H]1C(=O)O"
measure = "pIC50"
val = 7.17

[[record]]
smiles_structure = "CC[C@H](N[C@@H](CCc1ccccc1)C(=O)O)C(=O)N1C[C@@H](NC(=O)C[C@H](N)Cc2cc(F)c(F)cc2F)C[C@H]1C(=O)O"
measure = "pIC50"
val = 7.24


Please examine the following record next.
Req: For the compound shown here, C[C@H](N[C@@H](CCc1ccccc1)C(=O)O)C(=O)N1C[C@@H](NC(=O)C[C@H](N)Cc2cc(F)c(F)cc2F)C[C@H]1C(=O)O , give the reported pIC50.
Resp: 6.59

----------
Quick list: pIC50 per entry.
biological target: Angiotensin-converting enzyme (Mus musculus, UniProt P09470); test: Inhibition of ob/ob mouse plasma ACE
Sequence (P09470 whole entry): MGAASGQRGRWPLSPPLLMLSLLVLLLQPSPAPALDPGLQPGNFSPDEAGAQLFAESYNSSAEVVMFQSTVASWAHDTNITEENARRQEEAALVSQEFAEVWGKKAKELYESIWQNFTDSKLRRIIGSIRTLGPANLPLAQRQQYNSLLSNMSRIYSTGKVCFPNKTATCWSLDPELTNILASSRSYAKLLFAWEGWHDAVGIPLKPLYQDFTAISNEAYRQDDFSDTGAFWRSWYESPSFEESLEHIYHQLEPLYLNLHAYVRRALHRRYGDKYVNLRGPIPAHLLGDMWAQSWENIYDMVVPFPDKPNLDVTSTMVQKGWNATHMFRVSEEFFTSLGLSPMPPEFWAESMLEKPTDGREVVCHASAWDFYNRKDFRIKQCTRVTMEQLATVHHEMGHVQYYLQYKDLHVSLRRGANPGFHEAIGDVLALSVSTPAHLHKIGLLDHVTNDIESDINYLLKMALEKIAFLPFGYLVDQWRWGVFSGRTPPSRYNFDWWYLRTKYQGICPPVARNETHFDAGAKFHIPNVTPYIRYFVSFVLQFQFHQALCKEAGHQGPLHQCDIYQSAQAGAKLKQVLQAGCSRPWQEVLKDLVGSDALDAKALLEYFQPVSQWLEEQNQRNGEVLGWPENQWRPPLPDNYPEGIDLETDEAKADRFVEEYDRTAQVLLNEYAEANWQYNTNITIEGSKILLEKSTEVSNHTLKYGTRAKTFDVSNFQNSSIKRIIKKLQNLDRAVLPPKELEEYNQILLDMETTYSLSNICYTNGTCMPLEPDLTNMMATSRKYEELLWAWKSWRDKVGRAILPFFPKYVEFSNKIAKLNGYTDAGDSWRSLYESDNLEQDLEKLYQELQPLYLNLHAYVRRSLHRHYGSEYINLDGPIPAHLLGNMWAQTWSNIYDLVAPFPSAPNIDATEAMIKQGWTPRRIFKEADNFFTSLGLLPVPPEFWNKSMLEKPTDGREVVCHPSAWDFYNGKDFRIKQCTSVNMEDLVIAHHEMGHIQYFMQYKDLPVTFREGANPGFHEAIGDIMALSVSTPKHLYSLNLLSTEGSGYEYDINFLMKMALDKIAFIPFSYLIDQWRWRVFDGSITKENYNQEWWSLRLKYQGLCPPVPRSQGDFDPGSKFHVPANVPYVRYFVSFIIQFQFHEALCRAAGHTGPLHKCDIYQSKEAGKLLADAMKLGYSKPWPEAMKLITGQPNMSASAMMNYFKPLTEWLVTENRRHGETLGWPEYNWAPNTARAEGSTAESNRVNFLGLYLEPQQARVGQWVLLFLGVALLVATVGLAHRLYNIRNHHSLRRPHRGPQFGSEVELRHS
Scale explanation: pIC50 corresponds to minus log10 of a concentration expressed in moles per litre.

Record excerpt, results attached:
[[record]]
smiles_structure = "CC[C@H](N[C@@H](CCc1ccccc1)C(=O)O)C(=O)N1C[C@@H](NC(=O)C[C@H](N)Cc2cc(F)c(F)cc2F)C[C@H]1C(=O)O"
val = 7.00

[[record]]
smiles_structure = "C[C@H](N[C@@H](CCc1ccccc1)C(=O)O)C(=O)N1C[C@@H](NC(=O)C[C@H](N)Cc2cc(F)c(F)cc2F)C[C@H]1C(=O)O"
val = 7.24

[[record]]
smiles_structure = "CCCC[C@H](N[C@@H](CCc1ccccc1)C(=O)O)C(=O)N1C[C@@H](NC(=O)C[C@H](N)Cc2cc(F)c(F)cc2F)C[C@H]1C(=O)O"
val = 5.66


With those in mind, consider the next compound.
Req: Find pIC50 (Angiotensin-converting enzyme (Mus musculus, UniProt P09470)) for the entry CCC[C@H](N[C@@H](CCc1ccccc1)C(=O)O)C(=O)N1C[C@@H](NC(=O)C[C@H](N)Cc2cc(F)c(F)cc2F)C[C@H]1C(=O)O
Resp: 5.69

----------
Measured IC50 accompanies every entry in the list below.
molecular target: Dipeptidyl peptidase 4 (Mus musculus); assay: Inhibition of ob/ob mouse plasma DPP4
Sequence (P28843 whole entry): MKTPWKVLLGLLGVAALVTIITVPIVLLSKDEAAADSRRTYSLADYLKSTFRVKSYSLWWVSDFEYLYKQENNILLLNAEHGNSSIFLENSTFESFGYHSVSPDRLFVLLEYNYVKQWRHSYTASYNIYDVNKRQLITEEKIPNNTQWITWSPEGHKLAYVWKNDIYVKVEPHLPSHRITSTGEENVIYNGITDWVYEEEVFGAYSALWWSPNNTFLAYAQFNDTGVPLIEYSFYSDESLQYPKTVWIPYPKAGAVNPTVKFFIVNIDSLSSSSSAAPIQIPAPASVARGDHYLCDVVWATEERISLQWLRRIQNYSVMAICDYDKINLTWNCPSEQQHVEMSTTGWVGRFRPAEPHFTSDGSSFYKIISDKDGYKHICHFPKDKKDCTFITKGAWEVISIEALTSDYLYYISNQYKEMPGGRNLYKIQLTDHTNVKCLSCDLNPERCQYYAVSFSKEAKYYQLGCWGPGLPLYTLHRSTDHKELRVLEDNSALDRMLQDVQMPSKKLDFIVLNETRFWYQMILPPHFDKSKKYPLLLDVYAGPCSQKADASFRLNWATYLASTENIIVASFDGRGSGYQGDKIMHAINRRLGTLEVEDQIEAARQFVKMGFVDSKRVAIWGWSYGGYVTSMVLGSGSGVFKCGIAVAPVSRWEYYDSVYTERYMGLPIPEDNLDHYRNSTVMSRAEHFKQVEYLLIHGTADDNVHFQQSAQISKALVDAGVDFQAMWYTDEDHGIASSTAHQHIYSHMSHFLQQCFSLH
Value expressed in nM; do not type the unit.

Below are worked cases with known answers.
[[record]]
smiles_structure = "CCC[C@H](N[C@@H](CCc1ccccc1)C(=O)O)C(=O)N1C[C@@H](NC(=O)C[C@H](N)Cc2cc(F)c(F)cc2F)C[C@H]1C(=O)O"
measure = "IC50"
val = 2470

[[record]]
smiles_structure = "CC[C@H](N[C@@H](CCc1ccccc1)C(=O)O)C(=O)N1C[C@@H](NC(=O)C[C@H](N)Cc2cc(F)c(F)cc2F)C[C@H]1C(=O)O"
measure = "IC50"
val = 488

[[record]]
smiles_structure = "C[C@H](N[C@@H](CCc1ccccc1)C(=O)O)C(=O)N1C[C@@H](NC(=O)C[C@H](N)Cc2cc(F)c(F)cc2F)C[C@H]1C(=O)O"
measure = "IC50"
val = 217


Note: attention shifts to another entry.
Req: Bench note: what IC50 did CCCC[C@H](N[C@@H](CCc1ccccc1)C(=O)O)C(=O)N1C[C@@H](NC(=O)C[C@H](N)Cc2cc(F)c(F)cc2F)C[C@H]1C(=O)O show?
Resp: 7170

----------
molecular target: Dipeptidyl peptidase 8 (Homo sapiens, UniProt Q6V1X1)
Sequence (Q6V1X1 whole entry): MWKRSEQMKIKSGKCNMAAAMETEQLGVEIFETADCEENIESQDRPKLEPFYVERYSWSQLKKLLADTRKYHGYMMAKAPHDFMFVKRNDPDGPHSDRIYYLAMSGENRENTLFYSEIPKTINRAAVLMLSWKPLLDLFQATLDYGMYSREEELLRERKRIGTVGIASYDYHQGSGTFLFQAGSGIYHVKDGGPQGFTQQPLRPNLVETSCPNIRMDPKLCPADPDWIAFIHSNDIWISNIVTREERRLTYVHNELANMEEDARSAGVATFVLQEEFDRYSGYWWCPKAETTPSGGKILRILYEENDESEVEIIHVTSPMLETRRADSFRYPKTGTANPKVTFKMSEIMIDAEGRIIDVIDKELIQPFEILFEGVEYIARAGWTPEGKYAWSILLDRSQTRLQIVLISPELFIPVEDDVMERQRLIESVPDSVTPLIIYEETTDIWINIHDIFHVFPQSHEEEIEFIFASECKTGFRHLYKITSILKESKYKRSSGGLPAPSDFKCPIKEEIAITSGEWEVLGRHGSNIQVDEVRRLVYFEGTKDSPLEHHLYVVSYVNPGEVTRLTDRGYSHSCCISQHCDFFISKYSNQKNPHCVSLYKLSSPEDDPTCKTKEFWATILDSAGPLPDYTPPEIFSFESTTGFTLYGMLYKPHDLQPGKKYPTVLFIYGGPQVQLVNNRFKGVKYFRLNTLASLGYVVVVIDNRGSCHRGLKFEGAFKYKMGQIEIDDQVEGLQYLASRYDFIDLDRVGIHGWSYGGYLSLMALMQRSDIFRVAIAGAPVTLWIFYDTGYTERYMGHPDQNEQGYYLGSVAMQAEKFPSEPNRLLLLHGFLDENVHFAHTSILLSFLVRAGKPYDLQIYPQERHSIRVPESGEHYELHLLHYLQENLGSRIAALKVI
Measure: pIC50
The scale used: pIC50 is minus the common logarithm of the concentration in molar units.

Req: Provide value of pIC50 for this record tested with Dipeptidyl peptidase 8 (Homo sapiens, UniProt Q6V1X1): CC[C@H](N[C@@H](CCc1ccccc1)C(=O)O)C(=O)N1C[C@@H](NC(=O)C[C@H](N)Cc2cc(F)c(F)cc2F)C[C@H]1C(=O)O
Resp: 4.16

----------
Measured Cmax, listed per entry for reference.
experiment: Cmax in Wistar rat plasma at 30 mg/kg, po; assay type: ADME, organism-based; parameters: dose 30 mg/kg, route oral
Expressed in ng/mL, but write only the number.

Check out these entries, answers already filled in.
[[record]]
smiles_structure = "CC[C@H](N[C@@H](CCc1ccccc1)C(=O)O)C(=O)N1C[C@@H](NC(=O)C[C@H](N)Cc2cc(F)c(F)cc2F)C[C@H]1C(=O)O"
measure = "Cmax"
val = 550

[[record]]
smiles_structure = "C[C@H](N[C@@H](CCc1ccccc1)C(=O)O)C(=O)N1C[C@@H](NC(=O)C[C@H](N)Cc2cc(F)c(F)cc2F)C[C@H]1C(=O)O"
measure = "Cmax"
val = 260

[[record]]
smiles_structure = "CCC[C@H](N[C@@H](CCc1ccccc1)C(=O)O)C(=O)N1C[C@@H](NC(=O)C[C@H](N)Cc2cc(F)c(F)cc2F)C[C@H]1C(=O)O"
measure = "Cmax"
val = 2500


Now look at this entry.
Req: So what does the record say about Cmax for CCCC[C@H](N[C@@H](CCc1ccccc1)C(=O)O)C(=O)N1C[C@@H](NC(=O)C[C@H](N)Cc2cc(F)c(F)cc2F)C[C@H]1C(=O)O ?
Resp: 1330

----------
target: Aminopeptidase N (Homo sapiens)
Sequence (P15144 whole entry): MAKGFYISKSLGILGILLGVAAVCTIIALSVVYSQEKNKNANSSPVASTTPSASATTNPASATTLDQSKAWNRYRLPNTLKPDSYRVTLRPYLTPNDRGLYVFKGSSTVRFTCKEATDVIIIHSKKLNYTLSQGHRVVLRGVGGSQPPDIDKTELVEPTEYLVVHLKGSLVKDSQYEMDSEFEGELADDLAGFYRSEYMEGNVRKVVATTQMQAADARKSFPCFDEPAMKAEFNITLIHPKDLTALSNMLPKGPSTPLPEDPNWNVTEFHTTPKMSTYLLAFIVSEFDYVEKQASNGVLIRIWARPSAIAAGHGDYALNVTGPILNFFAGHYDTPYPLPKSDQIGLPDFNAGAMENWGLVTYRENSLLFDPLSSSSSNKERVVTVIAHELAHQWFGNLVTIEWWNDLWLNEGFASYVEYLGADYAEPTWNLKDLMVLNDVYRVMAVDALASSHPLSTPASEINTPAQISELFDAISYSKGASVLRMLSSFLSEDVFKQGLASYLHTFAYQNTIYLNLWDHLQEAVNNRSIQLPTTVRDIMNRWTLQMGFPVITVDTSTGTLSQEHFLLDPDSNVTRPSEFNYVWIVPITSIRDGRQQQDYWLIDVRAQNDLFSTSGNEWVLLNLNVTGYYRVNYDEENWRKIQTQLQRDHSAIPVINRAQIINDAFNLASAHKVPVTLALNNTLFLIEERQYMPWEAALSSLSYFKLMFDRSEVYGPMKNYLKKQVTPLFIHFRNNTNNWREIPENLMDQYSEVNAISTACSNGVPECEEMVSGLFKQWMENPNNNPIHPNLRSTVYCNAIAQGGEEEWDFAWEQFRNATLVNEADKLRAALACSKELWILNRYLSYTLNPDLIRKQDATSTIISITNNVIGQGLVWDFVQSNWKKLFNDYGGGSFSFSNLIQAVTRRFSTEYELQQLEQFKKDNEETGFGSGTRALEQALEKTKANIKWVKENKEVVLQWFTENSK
Measure: IC50

Req: Endpoint output: IC50 of CCC[C@H](N[C@@H](CCc1ccccc1)C(=O)O)C(=O)N1C[C@@H](NC(=O)C[C@H](N)Cc2cc(F)c(F)cc2F)C[C@H]1C(=O)O . Value?
Resp: > 100 µM

Req: Which IC50 reading was recorded for the molecule N[C@@H](CC(=O)N1CCn2c(nnc2C(F)(F)F)C1)Cc1cc(F)c(F)cc1F ?
Resp: > 100 µM

Req: Fill in the blank: the reported IC50 of C[C@H](N[C@@H](CCc1ccccc1)C(=O)O)C(=O)N1C[C@@H](NC(=O)C[C@H](N)Cc2cc(F)c(F)cc2F)C[C@H]1C(=O)O is ____.
Resp: > 100 µM

----------
target: UniProt Q86TI2
Measure: IC50

Req: Data request, read-out IC50, for CC[C@H](N[C@@H](CCc1ccccc1)C(=O)O)C(=O)N1C[C@@H](NC(=O)C[C@H](N)Cc2cc(F)c(F)cc2F)C[C@H]1C(=O)O
Resp: > 100 µM

----------
test: AUC (0 to 24 hrs) in Wistar rat plasma at 30 mg/kg, po; format: ADME, organism-based; set-up: time < 24 hr, dose 30 mg/kg, route oral
Measure: AUC(0-t) at 24 h (ng·h/mL)
Numbers only here, please. The scale is ng·h/mL.

[[record]]
smiles_structure = "CCC[C@H](N[C@@H](CCc1ccccc1)C(=O)O)C(=O)N1C[C@@H](NC(=O)C[C@H](N)Cc2cc(F)c(F)cc2F)C[C@H]1C(=O)O"
val = 21500

[[record]]
smiles_structure = "C[C@H](N[C@@H](CCc1ccccc1)C(=O)O)C(=O)N1C[C@@H](NC(=O)C[C@H](N)Cc2cc(F)c(F)cc2F)C[C@H]1C(=O)O"
val = 610


Req: I'd like to know its AUC(0-t) at 24 h. The compound in question is CC[C@H](N[C@@H](CCc1ccccc1)C(=O)O)C(=O)N1C[C@@H](NC(=O)C[C@H](N)Cc2cc(F)c(F)cc2F)C[C@H]1C(=O)O
Resp: 2360

Req: Given the entry CCCC[C@H](N[C@@H](CCc1ccccc1)C(=O)O)C(=O)N1C[C@@H](NC(=O)C[C@H](N)Cc2cc(F)c(F)cc2F)C[C@H]1C(=O)O , report its measured AUC(0-t) at 24 h.
Resp: 13900
